Experiment: IANBD-channel fluorescence artefacts in buffer – biochemical, artefact control for cardiac RTF calcium sensitizer project, confirmation (AID 504382)
Conditions: IANBD fluorescence interference counterscreen, EC20 Ca2+, at 7.2 µM, scaled: EC20 calcium 0, EC100 calcium 100
Hit rate of the full screen: of about 2,500 compounds, about 460 (18%) were called active.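 The calls were made as follows: active = mean activation above a cutoff of low control average plus 3 SD from the earlier screen (cut at about 12% in these data); inactive = the rest.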 The list is a sample of the results.
Use one of these outcomes when replying: TRUE (active), FALSE (inactive)

INSERT INTO assay_data (compound, group_label) VALUES
  ('CCOC(=O)CC(=O)CSc1nc(-c2ccc3c(c2)OCO3)cc(C(F)(F)F)c1C#N', 'FALSE'),
  ('CCC(CC)c1nnc(NC(=O)/C=C/c2ccco2)s1', 'FALSE'),
  ('COc1cc(C(=O)NCc2nnc(SCC(=O)Nc3ccc4c(c3)OCO4)o2)cc(OC)c1OC', 'TRUE'),
  ('CCn1cc(/C=C/C(=O)Nc2c(C)nn(Cc3ccccc3C)c2C)cn1', 'FALSE'),
  ('c1ccc(-n2ncc(-c3nn[nH]n3)n2)cc1', 'TRUE');

// return assay outcome for "CCOC(=O)c1ccccc1-n1nnnc1C"
FALSE

Record: "CCN(CC)S(=O)(=O)c1ccc2c(c1)nc(CCC(=O)Nc1ccc3c(c1)OCO3)n2C"
FALSE

Record: "Cc1cc(C)nc(NC(=O)c2ccc(Cl)c(Cl)c2)n1"
FALSE

Record: "COc1ccc(N=Cc2c(O)c3ccccc3n2C(C)=O)cc1"
FALSE

Record: "CCOC(=O)c1cc2c(s1)-c1ccccc1CC2"
FALSE

Record: COc1ccccc1C1=NOC(Cn2c(=O)c3c(ncn3C)n(C)c2=O)C1 (stereo unspecified)
FALSE
